B1: C1orf55 (parent)
chain: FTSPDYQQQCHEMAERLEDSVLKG

# Variants of: B1
# assay notes: protein stability index of a GFP-peptide fusion (GPS, HEK-293T) (PSI 1-6); higher = more stable;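 note: lentivirally expressed fusions sorted by FACS into six bins by GFP to DsRed ratio, PSI derived from sequencing read proportions per bin multiplied by bin number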
# test context: c terminus: a fixed tail appended
recorded endpoint: protein stability index
Please give only the number in your answer, with no unit.

// known answers, use as guide
variant key	protein stability index
Y6W	3.06
Q8E	3.44
P4G	2.06
G24F	2.01
Q9F	2.12
V21P	2.73
M13W	2.02
Q9H	1.85

Request: # query: protein stability index of entry "T2H"
Result: 2.25

Request: # query: protein stability index of entry "R16Y"
Result: 2.04

Request: # query: protein stability index of entry "A14S"
Result: 2

Where do the numbers come from? From the supplement of paper PMC10567573.
